System: U-2 OS
Test: cell painting activity score (Mahalanobis distance from DMSO wells); higher = stronger morphological phenotype
Conditions: 2.5 µM; 24 h
Classify by measured cell painting activity score: condition met if it is equal to or exceeds 6, condition not met if it is smaller.

compound: O=[N+]([O-])c1ccc(-c2nnc(SC3=CS(=O)(=O)c4ccccc43)o2)cc1
test-target: U-2 OS
class-label: condition met
//
compound: C[C@@H]1C[C@H]2O[C@@H]2/C=C\C=C\C(=O)Cc2c(Cl)c(O)cc(O)c2C(=O)O1
test-target: U-2 OS
class-label: condition met
//
compound: CNc1nc(-c2ccccc2)[n+](-c2ccccc2)s1
test-target: U-2 OS
class-label: condition not met
//
compound: Nc1ccn([C@@H]2O[C@H](CO)[C@@H](O)C2(F)F)c(=O)n1
test-target: U-2 OS
class-label: condition met
//
compound: COc1ccc(N2C(=O)CC(Sc3nnc(-c4ccccc4)o3)C2=O)cc1 (centres undefined)
test-target: U-2 OS
class-label: condition not met
//
compound: O=C(O[C@@H]1O[C@@H]2COC(=O)c3cc(O)c(O)c(O)c3-c3c(cc(O)c(O)c3O)C(=O)O[C@H]([C@H]1O)[C@@H]2O)c1cc(O)c(O)c(O)c1
test-target: U-2 OS
class-label: condition not met
//
compound: CCCC[S@](=N)(=O)CC[C@H](N)C(=O)O
test-target: U-2 OS
class-label: condition not met
//
compound: O=C1C=CC(=O)N1c1ccccc1
test-target: U-2 OS
class-label: condition met
//
compound: O=C(O)C1(C(=O)O)CCC1.[NH2-].[NH2-].[Pt+2]
test-target: U-2 OS
class-label: condition not met
//
compound: O=C1c2ccccc2[Se](=O)N1c1ccccc1 (centres undefined)
test-target: U-2 OS
class-label: condition met
//
compound: O=C1CC(Sc2nnnn2-c2ccccc2)C(=O)N1c1ccc([N+](=O)[O-])cc1 (centres undefined)
test-target: U-2 OS
class-label: condition not met
//
compound: C=C1[C@@H](C)[C@H]2[C@H](Cc3ccccc3)NC(=O)[C@]23[C@H](OC(C)=O)/C=C/[C@@](C)(O)C(=O)[C@@H](C)C/C=C/[C@H]3[C@@H]1O
test-target: U-2 OS
class-label: condition met
//
compound: COc1c(O)c2c(=O)cc3c4c5c(cc(=O)c6c(O)c(OC)c(CC(C)O)c(c(c1CC(C)O)c24)c65)OCO3 (centres undefined)
test-target: U-2 OS
class-label: condition met
//
compound: COc1ccc(C[C@H](N)C(=O)N[C@H]2[C@@H](O)[C@H](n3cnc4c(N(C)C)ncnc43)O[C@@H]2CO)cc1
test-target: U-2 OS
class-label: condition met
//
compound: O=[N+]([O-])c1c(Cl)cc(Cl)c2nsnc12
test-target: U-2 OS
class-label: condition met
//
compound: Oc1cc(O)cc(/C=C/c2ccc(O)c(O)c2)c1
test-target: U-2 OS
class-label: condition not met
//
compound: CCCCCC[C@H]1C(=O)O[C@H](C)[C@H](NC(=O)c2cccc(NC=O)c2O)C(=O)O[C@@H](C)[C@@H]1OC(=O)CC(C)C
test-target: U-2 OS
class-label: condition met
//
compound: CC(C)(C)C(=O)OCOc1cccc2ccccc12
test-target: U-2 OS
class-label: condition met
//
compound: COc1cc2ncnc(Nc3ccc(F)c(Cl)c3)c2cc1NC(=O)/C=C/CN1CCCCC1
test-target: U-2 OS
class-label: condition met
//
compound: COc1cc(=O)oc(/C=C/C=C/C=C/C(C)=C/[C@]2(C)O[C@H](C)[C@](C)(O)[C@H]2O)c1C
test-target: U-2 OS
class-label: condition met
//
compound: CC[C@]1(O)C[C@@H]2CN(CCc3c([nH]c4ccccc34)[C@@](C(=O)OC)(c3cc4c(cc3OC)N(C)[C@H]3[C@@](O)(C(=O)OC)[C@H](OC(C)=O)[C@]5(CC)C=CCN6CC[C@]43[C@@H]65)C2)C1
test-target: U-2 OS
class-label: condition met
//
compound: CC1=C2C(=CO[C@H](C)[C@H]2C)C(=O)C(C(=O)O)=C1O
test-target: U-2 OS
class-label: condition not met
//
compound: C=CC(=O)Nc1ccc(CN2C(=O)N(c3cc(OC)cc(OC)c3)Cc3cnc(Nc4ccc(N5CCN(C)CC5)cc4)nc32)cc1
test-target: U-2 OS
class-label: condition met
//
compound: CC(C)(C)C(=O)OCOc1cccc2c1C(=O)C1C3C=CC(CC3)C1C2=O (centres undefined)
test-target: U-2 OS
class-label: condition met
//
compound: O=C(c1ccc(/C=C/c2n[nH]c3ccccc23)cc1)N1CCNCC1
test-target: U-2 OS
class-label: condition met
//
compound: CC1(C)CCC2=C(O1)c1ccccc1C(=O)C2=O
test-target: U-2 OS
class-label: condition not met
//
compound: CCC(=O)CCCCC[C@@H]1NC(=O)[C@H]2CCCCN2C(=O)[C@H]([C@@H](C)CC)NC(=O)[C@H](Cc2cn(OC)c3ccccc23)NC1=O
test-target: U-2 OS
class-label: condition met
//
compound: Cn1c(SC2=CS(=O)(=O)c3ccccc32)nnc1-c1ccc(O)cc1
test-target: U-2 OS
class-label: condition met
//
compound: C=CC(=O)N1CCN(c2ncnc3c(F)c(-c4c(O)cccc4F)c(Cl)cc23)CC1
test-target: U-2 OS
class-label: condition met
//
compound: O=C1C(NCCN2CCOCC2)=C(Cl)C(=O)c2ncccc21
test-target: U-2 OS
class-label: condition met
//
compound: C=CC(=O)Nc1cc2c(Nc3ccc(F)c(Cl)c3)ncnc2cc1OCCCN1CCOCC1
test-target: U-2 OS
class-label: condition met
//
compound: Oc1ccc2ccccc2c1SSc1c(O)ccc2ccccc12
test-target: U-2 OS
class-label: condition met
//
compound: O=S1(=O)C=C(Sc2nn(-c3ccccc3)c(=S)s2)c2ccccc21
test-target: U-2 OS
class-label: condition met
